- Test system: HeLa Kyoto
- test: melting temperature (median over replicates), in situ; higher = more thermally stable
- setup-conditions: cell cycle stage: mitosis

macromolecule-sequence	melting temperature
MADGDSGSERGGGGGPCGFQPASRGGGEQETQELASKRLDIQNKRFYLDVKQNAKGRFLKIAEVGAGGSKSRLTLSMAVAAEFRDSLGDFIEHYAQLGPSSPEQLAAGAEEGGGPRRALKSEFLVRENRKYYLDLKENQRGRFLRIRQTVNRGGGGFGAGPGPGGLQSGQTIALPAQGLIEFRDALAKLIDDYGGEDDELAGGPGGGAGGPGGGLYGELPEGTSITVDSKRFFFDVGCNKYGVFLRVSEVKPSYRNAITVPFKAWGKFGGAFCRYADEMKEIQERQRDKLYERRGGGSGGGEESEGEEVDED [PURB]	54.1 °C
MAQYKGAASEAGRAMHLMKKREKQREQMEQMKQRIAEENIMKSNIDKKFSAHYDAVEAELKSSTVGLVTLNDMKAKQEALVKEREKQLAKKEQSKELQMKLEKLREKERKKEAKRKISSLSFTLEEEEEGGEEEEEAAMYEEEMEREEITTKKRKLGKNPDVDTSFLPDRDREEEENRLREELRQEWEAKQEKIKSEEIEITFSYWDGSGHRRTVKMRKGNTMQQFLQKALEILRKDFSELRSAGVEQLMYIKEDLIIPHHHSFYDFIVTKARGKSGPLFNFDVHDDVRLLSDATVEKDESHAGKVVLRSWYEKNKHIFPASRWEPYDPEKKWDKYTIR [FAM50A]	50.3 °C

###

- Test system: HeLa Kyoto
- test: solubility in G1/S (NP-40 vs SDS abundance) (log2 ratio); higher = more soluble
- setup-conditions: cell cycle stage: G1/S

substance	solubility in G1/S (log2)
ARHGEF12	-0.0555
MAGPELLLDSNIRLWVVLPIVIITFFVGMIRHYVSILLQSDKKLTQEQVSDSQVLIRSRVLRENGKYIPKQSFLTRKYYFNNPEDGFFKKTKRKVVPPSPMTDPTMLTDMMKGNVTNVLPMILIGGWINMTFSGFVTTKVPFPLTLRFKPMLQQGIELLTLDASWVSSASWYFLNVFGLRSIYSLILGQDNAADQSRMMQEQMTGAAMAMPADTNKAFKTEWEALELTDHQWALDDVEEELMAKDLHFEGMFKKELQTSIF [EMC3]	-0.174
MWRGRAGALLRVWGFWPTGVPRRRPLSCDAASQAGSNYPRCWNCGGPWGPGREDRFFCPQCRALQAPDPTRDYFSLMDCNRSFRVDTAKLQHRYQQLQRLVHPDFFSQRSQTEKDFSEKHSTLVNDAYKTLLAPLSRGLYLLKLHGIEIPERTDYEMDRQFLIEIMEINEKLAEAESEAAMKEIESIVKAKQKEFTDNVSSAFEQDDFEEAKEILTKMRYFSNIEEKIKLKKIPL [HSCB]	0.296
MEGNRDEAEKCVEIAREALNAGNREKAQRFLQKAEKLYPLPSARALLEIIMKNGSTAGNSPHCRKPSGSGDQSKPNCTKDSTSGSGEGGKGYTKDQVDGVLSINKCKNYYEVLGVTKDAGDEDLKKAYRKLALKFHPDKNHAPGATDAFKKIGNAYAVLSNPEKRKQYDLTGNEEQACNHQNNGRFNFHRGCEADITPEDLFNIFFGGGFPSGSVHSFSNGRAGYSQQHQHRHSGHEREEERGDGGFSVFIQLMPIIVLILVSLLSQLMVSNPPYSLYPRSGTGQTIKMQTENLGVVYYVNKDFKNEYKGMLLQKVEKSVEEDYVTNIRNNCWKERQQKTDMQYAAKVYRDDRLRRKADALSMDNCKELERLTSLYKGG [DNAJB14]	0.511
MSSTLAKIAEIEAEMARTQKNKATAHHLGLLKARLAKLRRELITPKGGGGGGPGEGFDVAKTGDARIGFVGFPSVGKSTLLSNLAGVYSEVAAYEFTTLTTVPGVIRYKGAKIQLLDLPGIIEGAKDGKGRGRQVIAVARTCNLILIVLDVLKPLGHKKIIENELEGFGIRLNSKPPNIGFKKKDKGGINLTATCPQSELDAETVKSILAEYKIHNADVTLRSDATADDLIDVVEGNRVYIPCIYVLNKIDQISIEELDIIYKVPHCVPISAHHRWNFDDLLEKIWDYLKLVRIYTKPKGQLPDYTSPVVLPYSRTTVEDFCMKIHKNLIKEFKYALVWGLSVKHNPQKVGKDHTLEDEDVIQIVKK [DRG1]	0.118
MAAQQRDCGGAAQLAGPAAEADPLGRFTCPVCLEVYEKPVQVPCGHVFCSACLQECLKPKKPVCGVCRSALAPGVRAVELERQIESTETSCHGCRKNFFLSKIRSHVATCSKYQNYIMEGVKATIKDASLQPRNVPNRYTFPCPYCPEKNFDQEGLVEHCKLFHSTDTKSVVCPICASMPWGDPNYRSANFREHIQRRHRFSYDTFVDYDVDEEDMMNQVLQRSIIDQ [RNF114]	0.162

The reported numbers originate from the supplement of paper PMC5998384.
